All values here come from IntAct's records for PubMed 20947020.

B1: AP-2 complex subunit mu (Rattus norvegicus (Rat)), P84092 (parent)
chain: MIGGLFIYNHKGEVLISRVYRDDIGRNAVDAFRVNVIHARQQVRSPVTNIARTSFFHVKRSNIWLAAVTKQNVNAAMVFEFLYKMCDVMAAYFGKISEENIKNNFVLIYELLDEILDFGYPQNSETGALKTFITQQGIKSQHQTKEEQSQITSQVTGQIGWRREGIKYRRNELFLDVLESVNLLMSPQGQVLSAHVSGRVVMKSYLSGMPECKFGMNDKIVIEKQGKGTADETSKSGKQSIAIDDCTFHQCVRLSKFDSERSISFIPPDGEFELMRYRTTKDIILPFRVIPLVREVGRTKLEVKVVIKSNFKPSLLAQKIEVRIPTPLNTSGVQVICMKGKAKYKASENAIVWKIKRMAGMKESQISAEIELLPTNDKKKWARPPISMNFEVPFAPSGLKVRYLKVFEPKLNYSDHDVIKWVRYIGRSGIYETRC
partner: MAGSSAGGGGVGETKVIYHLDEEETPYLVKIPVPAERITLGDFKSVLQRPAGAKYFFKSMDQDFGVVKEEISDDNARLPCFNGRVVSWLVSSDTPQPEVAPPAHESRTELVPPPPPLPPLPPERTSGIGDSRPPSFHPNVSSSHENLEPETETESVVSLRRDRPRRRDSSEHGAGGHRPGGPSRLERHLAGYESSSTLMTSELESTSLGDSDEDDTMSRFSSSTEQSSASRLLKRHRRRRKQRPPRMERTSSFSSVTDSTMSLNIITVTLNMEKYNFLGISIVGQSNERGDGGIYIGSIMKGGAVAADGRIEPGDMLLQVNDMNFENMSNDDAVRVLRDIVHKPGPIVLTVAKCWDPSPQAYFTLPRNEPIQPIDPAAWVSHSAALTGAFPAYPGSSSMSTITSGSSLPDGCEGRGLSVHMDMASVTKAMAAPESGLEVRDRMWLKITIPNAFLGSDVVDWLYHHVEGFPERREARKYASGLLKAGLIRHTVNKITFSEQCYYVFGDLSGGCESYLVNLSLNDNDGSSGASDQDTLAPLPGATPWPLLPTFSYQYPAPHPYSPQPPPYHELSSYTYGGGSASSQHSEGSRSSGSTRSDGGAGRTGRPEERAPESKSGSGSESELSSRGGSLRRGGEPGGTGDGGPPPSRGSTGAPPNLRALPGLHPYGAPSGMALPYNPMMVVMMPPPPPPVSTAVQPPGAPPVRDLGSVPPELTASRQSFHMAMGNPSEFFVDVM

# Variants of: B1
# protocol_conditions: with dvl2_mouse Dvl2, Q60838

>  <mutant>
E211A;K213D;K405D

>  <effect of a mutation on the interaction>
decreasing interaction

$$$$
>  <mutant>
K213D;K405D

>  <effect of a mutation on the interaction>
decreasing interaction

$$$$
>  <mutant>
E211A;K213D;K405D;F407A

>  <effect of a mutation on the interaction>
decreasing interaction

$$$$
